Values compiled from patent US20240269308A1.

# Tested on: SK-BR-3 cells
# assay.text: SKBR3 cell-based anti-proliferation / viability assay (CellTiter-Glo)
# Parameters: species or system human
# measurement.parameters: SKBR3 target positive cells, 6 days
The entries below are paired with their reported SKBR3 % Kill.
Give your result in % as a bare value.

Which SKBR3 % Kill is listed for CC[C@@]1(O)C(=O)OCc2c1cc1n(c2=O)Cc2c-1nc1cc(F)c(C)c3c1c2[C@@H](NC(=O)COCNC(=O)[C@@H](N)Cc1ccccc1)CC3 [P7] ?
97.0

Which SKBR3 % Kill is listed for CC[C@@]1(O)C(=O)OCc2c1cc1n(c2=O)Cc2c-1nc1cc(F)c(C)c3c1c2[C@@H](NC(=O)COCNC(=O)[C@@H](N)CO)CC3 [P2] ?
97.0

Which SKBR3 % Kill is listed for CC[C@@]1(O)C(=O)OCc2c1cc1n(c2=O)Cc2c-1nc1cc(F)c(C)c3c1c2[C@@H](NC(=O)COCNC(=O)CN)CC3 [P1] ?
96.0
